Give MFI for every item shown.
target: T1, Human siglec-6 expressed on the cell surface (HMC1.2 cells; HEK293 cells expressing human siglec-6) (human, UniProt O43699 27-453); experiment: flow cytometry on HMC1.2 cells
T1 construct: whole, on cells; also called cell surface expressed siglec-6; CD327
T1 sequence (O43699 27-453): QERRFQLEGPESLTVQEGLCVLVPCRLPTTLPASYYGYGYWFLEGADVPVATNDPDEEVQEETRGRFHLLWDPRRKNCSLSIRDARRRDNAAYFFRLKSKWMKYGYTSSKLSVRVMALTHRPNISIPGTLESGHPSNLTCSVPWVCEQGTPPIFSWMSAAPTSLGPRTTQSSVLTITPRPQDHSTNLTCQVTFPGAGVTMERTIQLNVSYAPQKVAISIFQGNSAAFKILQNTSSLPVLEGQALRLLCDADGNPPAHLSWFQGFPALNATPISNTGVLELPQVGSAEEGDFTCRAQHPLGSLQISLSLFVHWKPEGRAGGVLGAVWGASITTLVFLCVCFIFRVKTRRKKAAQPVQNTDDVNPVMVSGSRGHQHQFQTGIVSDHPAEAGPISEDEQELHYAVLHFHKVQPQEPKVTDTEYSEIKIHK
Answers are plain numbers, in MFI.

Below, each entry is followed by its recorded MFI result.
hRND-3 (antibody, human IgG1, kappa, V domains shown, also called humanized RND-3; hRND-H3 / hRND-L3; copies: 2 + 2) VH: QVQLVQSGAEVKKPGASVKLSCKASGYAFTSYWMHWVRQAPGQRLEWIGEIYPTNGGTTYAQKFQGRATLTVDKSTSTAYMELSRLRSDDTAVYYCTIEDFYAMDYWGQGTTVTVSS VL: DIVMTQTPLSLSVTPGQPASISCKSSQSLLDSDGKTSLNWLLQKPGQSPQRLIYLVSKLDSGVPDRFSGSGSGTDFTLKISRVEAEDVGVYYCWQGTHFPYTFGQGTKLEIKR    3700
hRND-4 (antibody, human IgG1, kappa, V domains shown, also called humanized RND-4; hRND-H2b / hRND-L3; copies: 2 + 2) VH: QVQLVQSGAEVKKPGASVKVSCKASGYAFTSYWMHWVRQAPGQRLEWMGEIYPTNGGTTYNEKFKRRVTMTVDKSTSTAYMELSRLRSDDTAVYYCTIEDFYAMDYWGQGTTVTVSS VL: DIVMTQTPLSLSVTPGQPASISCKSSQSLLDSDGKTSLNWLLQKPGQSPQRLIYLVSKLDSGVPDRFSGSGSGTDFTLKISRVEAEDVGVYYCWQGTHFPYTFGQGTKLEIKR    3200

Exercise: So what does the record say about MFI for hRND-2 (antibody, human IgG1, kappa, V domains shown, also called humanized RND-2; hRND-H2 / hRND-L3; copies: 2 + 2) VH: QVQLVQSGAEVKKPGASVKVSCKASGYAFTSYWMHWVRQAPGQRLEWMGEIYPTNGGTTYAQKFQGRVTMTVDKSTSTAYMELSRLRSDDTAVYYCTIEDFYAMDYWGQGTTVTVSS VL: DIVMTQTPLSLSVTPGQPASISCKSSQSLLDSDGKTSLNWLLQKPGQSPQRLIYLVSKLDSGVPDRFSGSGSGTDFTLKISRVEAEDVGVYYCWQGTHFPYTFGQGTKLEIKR ?
Solution: 3130
